Consider the following molecules and their measured pIC50 readings.
biological target: UniProt:P11413; test: Inhibition of human recombinant N-terminal His tagged G6PD expressed in Escherichia coli JM109 (DE3) cells assessed as production of NADPH after 30 mins by Amplite fluorimetric assay
Sequence (P11413 whole entry): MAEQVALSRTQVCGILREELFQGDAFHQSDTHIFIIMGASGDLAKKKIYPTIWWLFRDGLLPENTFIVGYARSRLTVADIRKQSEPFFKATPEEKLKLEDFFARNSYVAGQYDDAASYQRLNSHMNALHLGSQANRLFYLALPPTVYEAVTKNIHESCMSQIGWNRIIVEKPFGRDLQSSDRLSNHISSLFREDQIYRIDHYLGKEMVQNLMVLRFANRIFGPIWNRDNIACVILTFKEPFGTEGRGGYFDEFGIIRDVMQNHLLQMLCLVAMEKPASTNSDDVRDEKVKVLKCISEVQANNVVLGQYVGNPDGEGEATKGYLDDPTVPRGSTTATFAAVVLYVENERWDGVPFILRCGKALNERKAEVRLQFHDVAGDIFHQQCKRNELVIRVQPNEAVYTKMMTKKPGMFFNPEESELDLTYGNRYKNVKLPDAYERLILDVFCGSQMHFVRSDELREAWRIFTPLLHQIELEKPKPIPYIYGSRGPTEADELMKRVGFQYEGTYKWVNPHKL
Remember, pIC50 is on a log scale: it is -log10 of the molar concentration.

Check out these entries, answers already filled in.
* CC(=O)[C@H]1CC[C@H]2[C@@H]3CC[C@H]4C[C@@H](O)CC[C@]4(C)[C@H]3C(=O)C[C@]12C | 4.80
* C[C@]12CC[C@H](O)C[C@@H]1CC[C@@H]1[C@@H]2CC[C@]2(C)[C@@H](C(=O)CBr)CC[C@@H]12 | 5.60
* C[C@]12CC[C@H](O)C[C@@H]1CC[C@@H]1[C@@H]2CC[C@]2(C)C(=O)CC[C@@H]12 [EPIANDROSTERONE] | 5.03
* C[C@]12CC[C@H](O)C[C@@H]1CC[C@@H]1[C@@H]2CC[C@]2(C)C(=O)[C@H](Br)C[C@@H]12 [16.ALPHA.-BROMOEPIANDROSTERONE] | 4.68
* C[C@]12CC[C@H](NS(N)(=O)=O)C[C@@H]1CC[C@@H]1[C@@H]2CC[C@]2(C)[C@@H](C(=O)CO)CC[C@@H]12 | 5.92
* CCS(=O)(=O)N[C@H]1CC[C@@]2(C)[C@@H](CC[C@@H]3[C@@H]2CC[C@]2(C)[C@@H](C(C)=O)CC[C@@H]32)C1 | 4.96
* CCNC(=O)NC1CC[C@@]2(C)[C@@H](CC[C@@H]3[C@@H]2CC[C@]2(C)[C@@H](C(=O)CO)CC[C@@H]32)C1 (some centres undefined) | 4.46
* C[C@]12CC[C@H](NS(=O)(=O)c3ccccc3)C[C@@H]1CC[C@@H]1[C@@H]2CC[C@]2(C)C(=O)CC[C@@H]12 | 5.00

Fill in the blank: the reported pIC50 of "CCCCNC(=O)N[C@H]1CC[C@@]2(C)[C@@H](CC[C@@H]3[C@@H]2CC[C@]2(C)C(=O)CC[C@@H]32)C1" is ____.
5.77

Fill in the blank: the reported pIC50 of "CCNC(=O)N[C@H]1CC[C@@]2(C)[C@@H](CC[C@@H]3[C@@H]2CC[C@]2(C)C(=O)CC[C@@H]32)C1" is ____.
6.00

Fill in the blank: the reported pIC50 of "CC(=O)[C@H]1CC[C@H]2[C@@H]3CC[C@H]4C[C@@H](NS(C)(=O)=O)CC[C@]4(C)[C@H]3CC[C@]12C" is ____.
5.47
